test-summary: Evaluation of the cell toxicity using cultured human hepatocyte (ATP, Celltiter-Glo)
Format: cell-based
experimental-conditions: cultured adherent human hepatocytes (thawed from frozen); cultured human hepatocytes, 24 hours, ATP concentration; read-out: IC50 (50% inhibitory compound concentration of the emission of light, cell toxicity)
quantity-name: IC50 at 24 h (µM)
Numbers only, in µM.

// solved cases for IC50 at 24 h follow
Data request: Given Cc1cc(F)cc(-c2cncc(-c3ccc(C(F)(F)F)cc3)c2N2CCC(N)CC2)c1 [Example 26(24)] , state its recorded IC50 at 24 h.
Data returned: 35

Data request: For Cc1cc(F)cc(-c2cncc(/C=C/c3cncc(C#N)c3)c2N2CC[C@H]3NCCO[C@@H]3C2)c1 (racemic) [Example 36(8)] , what is its reported IC50 at 24 h?
Data returned: 69

Data request: Which IC50 at 24 h reading was recorded for the compound Cc1cc(C)cc(-c2cnc3cc(Cl)c(-c4cnn(C)c4)cc3c2OCC[C@H]2CCCCN2)c1 [formula (M), reference compound] ?
Data returned: 13

Data request: Which IC50 at 24 h reading was recorded for the compound Cc1cc(F)cc(-c2cncc(/C=C/c3cccc(C#N)c3)c2N2CCC(N)CC2)c1 [Example 36(5)] ?
Data returned: 19

Continue with the compound presented below.
Data request: Please report the recorded IC50 at 24 h for Cc1cc(C)cc(NC(=O)c2cncc(-c3cc(C)cc(C)c3)c2N2CCC(CN)CC2)c1 [Example 2(20)] .
Data returned: 40

* * *

system-tested: human SSTR2 (Homo sapiens)
Construct: Myc
Sequence (P30874 whole entry): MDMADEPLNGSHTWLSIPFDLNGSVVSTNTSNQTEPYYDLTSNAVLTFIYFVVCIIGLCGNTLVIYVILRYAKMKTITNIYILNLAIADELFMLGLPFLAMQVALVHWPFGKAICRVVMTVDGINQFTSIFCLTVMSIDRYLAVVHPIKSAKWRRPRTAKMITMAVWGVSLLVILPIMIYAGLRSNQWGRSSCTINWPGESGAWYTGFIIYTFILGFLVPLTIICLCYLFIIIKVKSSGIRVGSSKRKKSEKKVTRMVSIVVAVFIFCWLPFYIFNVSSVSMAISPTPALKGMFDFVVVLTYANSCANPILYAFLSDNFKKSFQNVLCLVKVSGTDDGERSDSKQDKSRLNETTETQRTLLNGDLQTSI
test-summary: Evaluation of SSTR2 agonist activity using human SSTR2 expressing cells (inhibition of Forskolin-stimulated cAMP production in SSTR2-CHO-K1)
experimental-conditions: read-out: EC50 of agonist activity against human SSTR2
quantity-name: pEC50
One number for each entry, as −log10 of the molar value.

Field: example entries. Status: answers known.
Data request: Param item = Cc1cc(F)cc(-c2cncc(/C=C/c3cncc(C#N)c3)c2N2CC[C@H]3NCCO[C@@H]3C2)c1 (racemic) ; retrieve measured pEC50.
Data returned: 10.47

Data request: I am curious: what pEC50 value has been reported for Cc1cc(F)cc(-c2cncc(-c3ccc(C(F)(F)F)cc3)c2N2CCC(N)CC2)c1 ?
Data returned: 10.31

Data request: Request the reported pEC50 associated with Cc1cc(F)cc(-c2cncc(/C=C/c3cccc(C#N)c3)c2N2CCC(N)CC2)c1
Data returned: 10.80

Then there is this compound:
Data request: Consider the compound Cc1cc(C)cc(NC(=O)c2cncc(-c3cc(C)cc(C)c3)c2N2CCC(CN)CC2)c1 and give its measured pEC50.
Data returned: 11.22
